- measurement-target: Sodium-dependent serotonin transporter (Homo sapiens)
- Sequence (P31645 whole entry): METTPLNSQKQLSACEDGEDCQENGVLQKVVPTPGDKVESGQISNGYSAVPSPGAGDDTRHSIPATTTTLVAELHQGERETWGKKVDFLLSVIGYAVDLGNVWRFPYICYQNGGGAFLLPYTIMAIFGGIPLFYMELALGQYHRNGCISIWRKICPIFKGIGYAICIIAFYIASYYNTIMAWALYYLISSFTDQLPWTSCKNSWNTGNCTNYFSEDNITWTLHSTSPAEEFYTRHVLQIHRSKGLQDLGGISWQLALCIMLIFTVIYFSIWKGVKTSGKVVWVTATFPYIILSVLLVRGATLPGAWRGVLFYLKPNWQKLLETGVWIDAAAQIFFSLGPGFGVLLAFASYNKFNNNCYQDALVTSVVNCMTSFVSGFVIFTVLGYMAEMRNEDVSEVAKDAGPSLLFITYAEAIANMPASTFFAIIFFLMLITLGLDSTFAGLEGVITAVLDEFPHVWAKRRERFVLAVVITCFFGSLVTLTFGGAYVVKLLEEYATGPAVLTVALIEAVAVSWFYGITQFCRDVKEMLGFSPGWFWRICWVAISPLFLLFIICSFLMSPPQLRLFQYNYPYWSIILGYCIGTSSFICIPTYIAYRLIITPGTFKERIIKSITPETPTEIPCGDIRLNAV
- procedure-text: Inhibition of Serotonin (5-HT) reuptake using cloned human transporter was determined
readout: pIC50
// pIC50 is dimensionless: -log10 of concentration (M)

GET /value?item= COC(=O)C1C2CC[C@H](C[C@@H]1c1ccc(Cl)c(C)c1)N2C (stereo partly specified) &field=pIC50 returns 9.00

###

- measurement-target: Sodium-dependent dopamine transporter (Rattus norvegicus, UniProt P23977)
- Sequence (P23977 whole entry): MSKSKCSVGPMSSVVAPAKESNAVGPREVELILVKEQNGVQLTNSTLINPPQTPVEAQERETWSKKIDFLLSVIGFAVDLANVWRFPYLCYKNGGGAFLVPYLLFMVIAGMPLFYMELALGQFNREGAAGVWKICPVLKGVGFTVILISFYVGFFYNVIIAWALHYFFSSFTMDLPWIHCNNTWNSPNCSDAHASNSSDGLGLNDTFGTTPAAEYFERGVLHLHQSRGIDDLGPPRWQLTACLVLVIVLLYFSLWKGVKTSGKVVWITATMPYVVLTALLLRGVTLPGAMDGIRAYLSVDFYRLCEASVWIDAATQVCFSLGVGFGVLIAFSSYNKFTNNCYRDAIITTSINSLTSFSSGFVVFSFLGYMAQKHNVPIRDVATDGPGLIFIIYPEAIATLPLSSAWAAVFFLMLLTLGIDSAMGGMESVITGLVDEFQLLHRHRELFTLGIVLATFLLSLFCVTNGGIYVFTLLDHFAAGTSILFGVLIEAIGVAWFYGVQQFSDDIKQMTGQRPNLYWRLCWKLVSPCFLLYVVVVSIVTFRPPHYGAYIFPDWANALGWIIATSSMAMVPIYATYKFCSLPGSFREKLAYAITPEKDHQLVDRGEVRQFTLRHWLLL
readout: pIC50
Reminder that pIC50 means the negative base-10 logarithm of the concentration expressed in mol/L.

Recorded pIC50, per entry:
{"columns": ["molecule", "pIC50"],
 "data": [
  ["COC(=O)C1C2CC[C@H](C[C@@H]1c1ccc(C)c(F)c1)N2 (some centres undefined)", 8.05],
  ["Cc1ccc([C@H]2C[C@H]3CCC(C2C(=O)OC(C)C)N3C)cc1 (some centres undefined)", 8.19],
  ["CCc1ccc([C@H]2C[C@H]3CCC(N3)C2C(=O)OC)cc1 (some centres undefined)", 7.30],
  ["COC(=O)C1C2CC[C@H](C[C@@H]1c1ccc(C)cc1)N2 (some centres undefined)", 7.47],
  ["CN1C2CC[C@@H]1C[C@H](c1ccc(Cl)cc1)C2C(=O)OCCc1ccc(N)cc1 (some centres undefined)", 8.67],
  ["Cc1ccc(-c2cc(C3C4CC[C@H](C[C@@H]3c3ccc(Cl)cc3)N4C)on2)cc1 (some centres undefined)", 8.39]
]}

Assay Sodium-dependent dopamine transporter (Rattus norvegicus, UniProt P23977), sample CN1C2CC[C@@H]1C[C@H](c1ccc(Cl)cc1)C2C(=O)OCCc1ccc(N=S)cc1 (some centres undefined) , pIC50 read: 8.28

Assay Sodium-dependent dopamine transporter (Rattus norvegicus, UniProt P23977), sample COC(=O)C1C2CC[C@H](C[C@@H]1c1cccc(I)c1)N2 (some centres undefined) , pIC50 read: 7.59

Lab note: molecule CN1C2CC[C@@H]1C[C@H](c1ccc(Cl)cc1)C2C(=O)N1CCCC1 (some centres undefined) tested on Sodium-dependent dopamine transporter (Rattus norvegicus, UniProt P23977); recorded pIC50 was 8.86

Entry COC(=O)C1C2CC[C@H](C[C@@H]1c1ccc(Cl)c(C)c1)N2C (some centres undefined) , tested on Sodium-dependent dopamine transporter (Rattus norvegicus, UniProt P23977), has a reported pIC50 of 9.09

Record C=C(C)c1ccc([C@H]2C[C@H]3CCC(N3)C2C(=O)OC)cc1 (some centres undefined) has Sodium-dependent dopamine transporter (Rattus norvegicus, UniProt P23977) pIC50 equal to 7.64

###

# maps each entry to its Ke
- measurement-target: UniProt P97266
- procedure-text: Inhibition of [35S]GTP-gamma-S, binding in guines pig caudate stimulated by DAMGO for Opioid receptor mu 1
- Type: functional

Note to self: Ke of C[C@H]1C2CCCC1(c1cccc(O)c1)CCN2CCc1ccccc1 (some centres undefined) with UniProt P97266 was 0.338 nM

###

- measurement-target: Sodium-dependent serotonin transporter (Rattus norvegicus, UniProt P31652)
- Sequence (P31652 whole entry): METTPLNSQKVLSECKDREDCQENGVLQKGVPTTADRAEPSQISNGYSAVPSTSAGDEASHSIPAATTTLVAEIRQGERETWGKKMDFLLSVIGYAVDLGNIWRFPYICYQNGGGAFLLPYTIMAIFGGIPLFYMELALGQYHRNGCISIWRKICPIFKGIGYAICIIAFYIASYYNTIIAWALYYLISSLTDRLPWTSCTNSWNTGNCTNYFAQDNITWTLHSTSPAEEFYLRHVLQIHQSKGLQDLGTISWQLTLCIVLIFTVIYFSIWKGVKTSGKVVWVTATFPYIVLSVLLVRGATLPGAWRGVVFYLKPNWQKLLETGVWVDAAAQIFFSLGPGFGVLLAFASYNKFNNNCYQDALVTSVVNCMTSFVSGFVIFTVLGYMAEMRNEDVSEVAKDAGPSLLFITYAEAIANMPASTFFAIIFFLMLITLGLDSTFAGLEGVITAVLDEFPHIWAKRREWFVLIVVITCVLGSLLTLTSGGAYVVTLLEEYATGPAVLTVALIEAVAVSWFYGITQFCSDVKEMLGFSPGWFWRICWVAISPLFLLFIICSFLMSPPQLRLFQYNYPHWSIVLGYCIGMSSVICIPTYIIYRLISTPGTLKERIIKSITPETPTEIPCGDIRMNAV
- procedure-text: Inhibition of [3H]paroxetine binding at serotonin transporter was determined
readout: Ki (nM)
Record the value in nM, omitting the unit from your answer.

These solved cases illustrate the format of a correct answer.
{"columns": ["compound", "value"],
 "data": [
  ["COC(=O)C1C2CC[C@H](C[C@@H]1c1cccc(I)c1)N2 (stereo not given in full)", 3.6],
  ["COC(=O)C1C2CC[C@H](C[C@@H]1c1ccc(Cl)cc1)N2C (stereo not given in full)", 4.1],
  ["C=C(C)c1ccc([C@H]2C[C@H]3CCC(N3)C2C(=O)OC)cc1 (stereo not given in full)", 0.055],
  ["COC(=O)C1C2CC[C@H](C[C@H]1c1ccc(Cl)c(Cl)c1)N2C (stereo not given in full)", 0.28]
]}

Given item COC(=O)C1C2CC[C@H](C[C@@H]1c1ccc(C)c(F)c1)N2 (stereo not given in full) , the value recorded as its Ki is 23.8

Reported Ki of CN(C)C(=O)C1C2CC[C@H](C[C@@H]1c1ccc(Cl)cc1)N2C (stereo not given in full) : 98

Noted for CN1C2CCC1C(C(=O)Oc1ccccc1)C(c1ccc(Cl)cc1)C2 (stereo not given) : its Ki reads 214

###

Parameter Ki, tested on Mu-type opioid receptor (Cavia porcellus), listed per item.
Sequence (P97266 whole entry): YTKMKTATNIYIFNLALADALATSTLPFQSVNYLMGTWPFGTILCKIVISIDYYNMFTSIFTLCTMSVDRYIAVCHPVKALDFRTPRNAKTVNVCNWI
Provide only the numeric value, understood in nM.

Worked set:
{"columns": ["molecule-smiles", "value-unit", "Ki"],
 "data": [
  ["Cc1ccccc1/C=C/CN1CC[C@@](C)(c2cccc(O)c2)[C@@H](C)C1", "nM", 0.86],
  ["C[C@H]1CN(C/C=C/c2ccccc2Cl)CC[C@@]1(C)c1cccc(O)c1", "nM", 1.12],
  ["C[C@H]1CN(C/C=C/c2ccccc2)CC[C@@]1(C)c1cccc(O)c1", "nM", 0.74]
]}

Let's switch to this compound now.
C[C@H]1CN(CC[C@H](O)C2CCCCC2)CC[C@@]1(C)c1cccc(O)c1 has a reported Ki of 0.32

###

- Test system: Rattus norvegicus
- procedure-text: Time during which activity returned to baseline level in rat by intraperitoneal administration
- Type: functional
readout: Time

Consider the following illustrative entries.
{"columns": ["molecule", "Time"],
 "data": [
  ["COC(=O)[C@H]1[C@@H](OC(=O)c2ccccc2)C[C@@H]2CC[C@H]1N2C [COCAINE]", "<2 h"],
  ["Cc1ccc(-c2cc(C3C4CC[C@H](C[C@@H]3c3ccc(Cl)cc3)N4C)on2)cc1 (stereo partly specified)", ">4 h"],
  ["COC(=O)[C@@H]1C2CC[C@H](C[C@@H]1c1ccccc1)N2C.Cl", "2 h"],
  ["COC(=O)C1C2CC[C@H](C[C@@H]1c1ccc(Cl)c(C)c1)N2C (stereo partly specified)", ">4 h"],
  ["CN1C2CCC1C(C(=O)Oc1ccccc1)C(c1ccc(Cl)cc1)C2 (stereo unspecified)", ">4 h"]
]}

Okay, next one:
The reported value for Cc1ccc([C@H]2C[C@H]3CCC(C2C(=O)OC(C)C)N3C)cc1 (stereo partly specified) in terms of Time is >4 h

###

Catalogue of pIC50 readings, one per entry.
- measurement-target: Sodium-dependent dopamine transporter (Rattus norvegicus)
Conceptually, pIC50 converts a concentration in mol/L into minus its log10.

Below are worked cases with known answers.
{"columns": ["compound", "measurement-target", "pIC50"],
 "data": [
  ["CN(C)C(=O)C1C2CC[C@H](C[C@@H]1c1ccc(Cl)cc1)N2C (stereo partly drawn)", "Sodium-dependent dopamine transporter (Rattus norvegicus)", 8.86],
  ["Cc1ccc([C@H]2C[C@H]3CCC(C2c2ccccc2)N3C)cc1 (stereo partly drawn)", "Sodium-dependent dopamine transporter (Rattus norvegicus)", 8.71]
]}

The record that follows has no pIC50 shown yet.
// CCc1ccc([C@H]2C[C@H]3CCC(N3)C2C(=O)OC)cc1I (stereo partly drawn) : pIC50 value = 6.48

###

- measurement-target: Mu-type opioid receptor (Cavia porcellus)
- procedure-text: Inhibition of [35S]GTP-gamma-S, binding in guines pig caudate stimulated by DAMGO for Opioid receptor mu 1
- Format: functional
readout: Ke (nM)
// units = nM; emit number, no label

Query C[C@H]1CN(C/C=C/c2ccccc2)CC[C@@]1(C)c1cccc(O)c1 yields Ke of 0.039

Just so you know, measured Ke for CC1CN(C)C2CCCC1(c1cccc(O)c1)C2 (stereo not drawn) came out at 25.2

C[C@H]1CN(CC[C@H](O)C2CCCCC2)CC[C@@]1(C)c1cccc(O)c1 yielded Ke of 0.021

In plain terms, Oc1ccc2c3c1O[C@H]1c4[nH]c5c(c4C[C@@]4(O)[C@@H](C2)N(CC2CC2)CC[C@]314)C[C@@]1(O)[C@H]2Cc3ccc(O)c4c3[C@@]1(CCN2CC1CC1)[C@H]5O4 has a documented Ke of 16.8

Note to self: Ke recorded for C[C@H]1CN(C/C=C/c2ccccc2Cl)CC[C@@]1(C)c1cccc(O)c1 was 0.026

For record CC(C)[C@@H](CN1CC[C@@](C)(c2cccc(O)c2)[C@@H](C)C1)NC(=O)CCc1ccc(O)cc1 the listed Ke is 7.25

// Cc1ccccc1/C=C/CN1CC[C@@](C)(c2cccc(O)c2)[C@@H](C)C1 : Ke value = 0.013

For this molecule ( CC1C2CCCC1(c1cccc(O)c1)CCN2C (stereo not drawn) ), measured Ke is 21.2

###

- measurement-target: UniProt:P31652
- procedure-text: Inhibition of [3H]paroxetine binding at serotonin transporter was determined
readout: Ki (nM)
Please respond with the number in nM and leave the unit unwritten.

// Ki lookup, compound = CCc1ccc([C@H]2C[C@H]3CCC(N3)C2C(=O)OC)cc1 (stereo partly drawn) , result: 0.74

###

A set of compounds tested on Sodium-dependent serotonin transporter (Rattus norvegicus, UniProt P31652), with measured Ki:
Number plus unit, in that order.

{"columns": ["compound", "Ki"],
 "data": [
  ["Cc1ccc([C@H]2C[C@H]3CCC(C2C(=O)OC(C)C)N3C)cc1 (some centres not stated)", "554 nM"],
  ["CN1[C@H]2CC[C@@H]1[C@@H](C(=O)N1CCCC1)[C@@H](c1ccc(I)cc1)C2", "157 nM"],
  ["Cc1ccc([C@H]2C[C@H]3CCC(C2c2ccccc2)N3C)cc1 (some centres not stated)", "1000 nM"],
  ["CN1C2CC[C@@H]1C[C@H](c1ccc(Cl)cc1)C2C(=O)N1CCCC1 (some centres not stated)", "1130 nM"],
  ["Cc1ccc(-c2cc(C3C4CC[C@H](C[C@@H]3c3ccc(Cl)cc3)N4C)on2)cc1 (some centres not stated)", "522 nM"],
  ["CCc1ccc([C@H]2C[C@H]3CCC(N3)C2C(=O)OC)cc1I (some centres not stated)", "0.063 nM"],
  ["COC(=O)C1C2CC[C@H](C[C@@H]1c1ccc(I)cc1)N2C (some centres not stated)", "0.38 nM"],
  ["COC(=O)C1C2CC[C@H](C[C@@H]1c1ccc(Cl)c(C)c1)N2C (some centres not stated)", "0.95 nM"]
]}

Reported Ki for COC(=O)C1C2CC[C@H](C[C@@H]1c1ccc(C)cc1)N2 (some centres not stated) was 46 nM

Recorded result, CN1C2CC[C@@H]1C[C@H](c1ccc(Cl)cc1)C2C(=O)OCCc1ccc(N=S)cc1 (some centres not stated) , Ki: 0.65 nM

Kindly note the recorded Ki for CN1C2CC[C@@H]1C[C@H](c1ccc(Cl)cc1)C2c1cc(-c2ccccc2)no1 (some centres not stated) , which is 220 nM

Reported Ki for COC(=O)C1C2CC[C@H](C[C@H]1c1ccc(Br)cc1)N2C (some centres not stated) was 0.96 nM
